experiment: Cytotoxicity test (neutral red dye uptake); assay type: cell-based; details: human, 2.2.15 cells, A510, 2.2.15 cell, cells treated as in Biological Example 1, read-out: IC50 (cytotoxicity)
Quantity measured: CC50 (µM)
A number alone suffices; assume µM.

CO[C@@H]1OC=C(C=O)[C@H]2CC=C(C=O)[C@@H]12: 120

I'd like to know its CC50. The compound in question is "COC(=O)C1=CO[C@@H](OCc2ccccc2)[C@@H]2C(C=NO)=CC[C@H]12"
130

Consider the compound "COC(=O)C1=CO[C@@H](OCc2ccccc2)[C@@H]2C(C=O)=CC[C@H]12" and give its measured CC50.
50

State the recorded CC50 for this entry: "COc1ccc(COCC2=CO[C@@H](OC)[C@@H]3C(C=NO)=CC[C@H]23)cc1"
90
